This listing pairs compounds with measured pKd.
# target or test system: EGFR S752-I759del (Homo sapiens (Human), UniProt P00533, DEL752-759)
# Sequence (P00533 other isoform, or with tags, fused parts or gaps del 1-668/del 752-759/del 1012-1210 limits assumed): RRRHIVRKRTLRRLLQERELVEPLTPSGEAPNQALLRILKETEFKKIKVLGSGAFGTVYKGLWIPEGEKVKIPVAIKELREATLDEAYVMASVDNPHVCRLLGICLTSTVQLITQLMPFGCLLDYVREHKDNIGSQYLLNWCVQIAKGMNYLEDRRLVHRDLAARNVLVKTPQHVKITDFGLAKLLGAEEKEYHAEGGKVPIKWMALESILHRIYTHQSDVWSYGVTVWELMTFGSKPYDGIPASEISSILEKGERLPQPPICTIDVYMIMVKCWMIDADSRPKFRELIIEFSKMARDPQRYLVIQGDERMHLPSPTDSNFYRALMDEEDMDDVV
# method: KINOMEscan competition binding assay (Kd)
# conditions used: KINOMEscan binding constant; read-out: Kd Activity Level (EGFR S752-I759del)
pKd: −log10 of the molar value.

| compound | pKd |
| --- | --- |
| N#Cc1cnc2cc(OC[C@@H](O)CO)c(NC(=O)CC3CSSC3)cc2c1Nc1ccc(OCc2cccc(F)c2)c(Cl)c1 | 7.00 to 9.00 |
| CCOc1cc2ncc(C#N)c(Nc3ccc(OCc4cccc(F)c4)c(Cl)c3)c2cc1NC(=O)C1CSSC1 | 7.00 to 9.00 |
| N#Cc1cnc2cc(OC[C@H](O)CO)c(NC(=O)C[C@H]3CCSS3)cc2c1Nc1ccc(OCc2cccc(F)c2)c(Cl)c1 | 7.00 to 9.00 |
| CCOc1cc2ncc(C#N)c(Nc3ccc(OCc4cccc(F)c4)c(Cl)c3)c2cc1NC(=O)C(CSC(C)=O)CSC(C)=O | 6.00 to 7.00 |
| N#Cc1cnc2cc(OC[C@@H](O)CO)c(NC(=O)C[C@H]3CCSS3)cc2c1Nc1ccc(OCc2cccc(F)c2)c(Cl)c1 | 7.00 to 9.00 |
| CCOc1cc2ncc(C#N)c(Nc3ccc(OCc4cccc(F)c4)c(Cl)c3)c2cc1NC(=O)CC1CCSS1 (centres unmarked) | 7.00 to 9.00 |
| N#Cc1cnc2cc(OC[C@@H](O)CO)c(NC(=O)C[C@@H]3CCSS3)cc2c1Nc1ccc(OCc2cccc(F)c2)c(Cl)c1 | 7.00 to 9.00 |
| N#Cc1cnc2cc(OC[C@H](O)CO)c(NC(=O)CC3CCSS3)cc2c1Nc1ccc(OCc2cccc(F)c2)c(Cl)c1 (some centres unmarked) | 7.00 to 9.00 |

---

# target or test system: EGFR (L858R) (Homo sapiens (Human), UniProt P00533, L858R)
# Sequence (P00533 25-1210 L858R): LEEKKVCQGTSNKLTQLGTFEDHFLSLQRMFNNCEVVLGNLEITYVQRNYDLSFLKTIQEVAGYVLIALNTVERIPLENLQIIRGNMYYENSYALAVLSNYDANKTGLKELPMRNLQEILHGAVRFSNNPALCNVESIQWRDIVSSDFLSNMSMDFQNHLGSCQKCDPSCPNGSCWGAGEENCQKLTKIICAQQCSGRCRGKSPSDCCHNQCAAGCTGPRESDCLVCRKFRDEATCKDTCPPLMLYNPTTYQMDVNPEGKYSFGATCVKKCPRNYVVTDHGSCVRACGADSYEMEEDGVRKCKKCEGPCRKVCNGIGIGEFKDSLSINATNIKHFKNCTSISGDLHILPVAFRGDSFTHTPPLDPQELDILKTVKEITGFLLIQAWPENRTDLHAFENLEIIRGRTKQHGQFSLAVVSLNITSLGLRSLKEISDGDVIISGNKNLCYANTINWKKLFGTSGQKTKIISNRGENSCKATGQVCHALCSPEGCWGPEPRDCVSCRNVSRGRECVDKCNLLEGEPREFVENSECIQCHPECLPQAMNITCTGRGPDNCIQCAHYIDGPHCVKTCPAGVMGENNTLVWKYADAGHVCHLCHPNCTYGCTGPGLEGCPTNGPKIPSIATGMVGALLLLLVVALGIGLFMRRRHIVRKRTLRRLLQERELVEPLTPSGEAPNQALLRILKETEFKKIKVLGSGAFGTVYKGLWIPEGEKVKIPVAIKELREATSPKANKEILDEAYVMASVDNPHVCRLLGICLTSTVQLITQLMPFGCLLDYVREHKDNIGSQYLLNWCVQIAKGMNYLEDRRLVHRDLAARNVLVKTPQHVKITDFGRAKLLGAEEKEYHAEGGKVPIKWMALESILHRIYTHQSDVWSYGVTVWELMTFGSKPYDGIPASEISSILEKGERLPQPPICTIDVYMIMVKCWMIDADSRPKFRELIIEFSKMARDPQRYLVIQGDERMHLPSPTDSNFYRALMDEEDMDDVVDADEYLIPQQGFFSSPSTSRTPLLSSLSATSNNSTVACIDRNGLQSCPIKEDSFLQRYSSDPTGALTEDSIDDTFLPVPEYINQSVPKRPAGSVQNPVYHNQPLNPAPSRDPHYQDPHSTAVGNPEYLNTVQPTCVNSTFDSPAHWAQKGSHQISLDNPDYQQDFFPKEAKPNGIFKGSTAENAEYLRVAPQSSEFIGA
# method: KinaseSeeker rabbit reticulocyte lysate competition binding assay (IC50)
pIC50: −log10 of the molar value.

| compound | pIC50 |
| --- | --- |
| CCOc1cc2ncc(C#N)c(Nc3ccc(F)c(Cl)c3)c2cc1NC(=O)CC(CCSCc1ccccc1)SCc1ccccc1 (stereo not drawn) | 5.00 to 6.00 |
| CCOc1cc2ncc(C#N)c(Nc3ccc(F)c(Cl)c3)c2cc1NC(=O)CCCCC1CCSS1 (stereo not drawn) | 6.00 to 7.00 |
| N#Cc1cnc2cc(OC[C@@H](O)CO)c(NC(=O)CC3CSSC3)cc2c1Nc1ccc(OCc2cccc(F)c2)c(Cl)c1 | 7.00 to 9.00 |
| CCOc1cc2ncc(C#N)c(Nc3ccc(OCc4cccc(F)c4)c(Cl)c3)c2cc1NC(=O)C(CSC(C)=O)CSC(C)=O | 7.00 to 9.00 |
| N#Cc1cnc2cc(OC[C@@H](O)CO)c(NC(=O)C3CSSC3)cc2c1Nc1ccc(OCc2cccc(F)c2)c(Cl)c1 | 7.00 to 9.00 |
| N#Cc1cnc2cc(OC[C@H](O)CO)c(NC(=O)C[C@H]3CCSS3)cc2c1Nc1ccc(OCc2cccc(F)c2)c(Cl)c1 | 7.00 to 9.00 |
| CCOc1cc2ncc(C#N)c(Nc3ccc(OCc4cccc(F)c4)c(Cl)c3)c2cc1NC(=O)C1CSSC1 | 7.00 to 9.00 |
| N#Cc1cnc2cc(OC[C@@H](O)CO)c(NC(=O)C[C@H]3CCSS3)cc2c1Nc1ccc(OCc2cccc(F)c2)c(Cl)c1 | 7.00 to 9.00 |
| N#Cc1cnc2cc(OC[C@H](O)CO)c(NC(=O)CC3CCSS3)cc2c1Nc1ccc(OCc2cccc(F)c2)c(Cl)c1 (stereo partly drawn) | 7.00 to 9.00 |
| CCOc1cc2ncc(C#N)c(Nc3ccc(F)c(Cl)c3)c2cc1NC(=O)C1CCSS1 (stereo not drawn) | 7.00 to 9.00 |
| N#Cc1cnc2ccc(NC(=O)CC3CCSS3)cc2c1Nc1ccc(OCc2cccc(F)c2)c(Cl)c1 (stereo not drawn) | 7.00 to 9.00 |
| COc1cc2ncnc(Nc3ccc(OCc4cccc(F)c4)c(Cl)c3)c2cc1NC(=O)C(CSC(C)=O)CSC(C)=O | 7.00 to 9.00 |
| N#Cc1cnc2cc(OC[C@@H](O)CO)c(NC(=O)C[C@@H]3CCSS3)cc2c1Nc1ccc(OCc2cccc(F)c2)c(Cl)c1 | 7.00 to 9.00 |
| N#Cc1cnc2cc(OC[C@H](O)CO)c(NC(=O)C3CSSC3)cc2c1Nc1ccc(OCc2cccc(F)c2)c(Cl)c1 | 7.00 to 9.00 |
| N#Cc1cnc2cc(OC[C@H](O)CO)c(NC(=O)CC3CSSC3)cc2c1Nc1ccc(OCc2cccc(F)c2)c(Cl)c1 | 7.00 to 9.00 |

---

# target or test system: various mutant EGF receptors (Homo sapiens, UniProt P00533, DEL747-752/P753S)
# Sequence (P00533 with tags, fused parts or gaps DEL747-752/P753S limits assumed): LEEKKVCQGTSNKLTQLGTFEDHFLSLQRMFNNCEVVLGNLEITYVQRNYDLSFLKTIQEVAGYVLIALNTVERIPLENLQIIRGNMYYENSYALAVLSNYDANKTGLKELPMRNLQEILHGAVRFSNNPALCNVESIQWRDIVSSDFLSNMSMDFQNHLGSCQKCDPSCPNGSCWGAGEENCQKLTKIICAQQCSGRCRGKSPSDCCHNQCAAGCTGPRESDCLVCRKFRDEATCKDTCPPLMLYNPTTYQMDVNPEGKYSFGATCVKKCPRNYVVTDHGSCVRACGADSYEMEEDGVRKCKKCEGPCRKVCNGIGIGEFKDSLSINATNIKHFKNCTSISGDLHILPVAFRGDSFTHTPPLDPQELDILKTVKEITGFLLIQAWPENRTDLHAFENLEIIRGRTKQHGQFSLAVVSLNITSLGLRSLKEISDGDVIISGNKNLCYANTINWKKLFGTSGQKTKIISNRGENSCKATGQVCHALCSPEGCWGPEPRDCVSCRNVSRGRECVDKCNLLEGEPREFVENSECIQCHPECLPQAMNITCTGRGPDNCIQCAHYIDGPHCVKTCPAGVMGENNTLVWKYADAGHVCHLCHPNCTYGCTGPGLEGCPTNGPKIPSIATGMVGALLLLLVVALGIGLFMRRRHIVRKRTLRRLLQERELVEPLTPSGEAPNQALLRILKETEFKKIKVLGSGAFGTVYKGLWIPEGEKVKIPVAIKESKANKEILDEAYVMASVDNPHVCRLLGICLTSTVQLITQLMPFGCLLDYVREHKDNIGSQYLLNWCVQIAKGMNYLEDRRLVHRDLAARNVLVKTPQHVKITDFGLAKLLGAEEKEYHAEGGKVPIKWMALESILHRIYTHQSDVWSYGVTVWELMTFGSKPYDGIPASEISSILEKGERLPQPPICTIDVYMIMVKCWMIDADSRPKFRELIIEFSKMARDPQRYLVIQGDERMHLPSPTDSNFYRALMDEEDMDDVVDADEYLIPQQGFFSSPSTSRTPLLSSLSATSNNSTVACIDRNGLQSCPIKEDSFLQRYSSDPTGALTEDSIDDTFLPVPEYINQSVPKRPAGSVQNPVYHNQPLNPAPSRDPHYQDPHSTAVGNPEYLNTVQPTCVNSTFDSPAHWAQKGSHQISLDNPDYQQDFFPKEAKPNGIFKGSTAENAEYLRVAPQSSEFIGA
# method: KINOMEscan competition binding assay (Kd), Example 40 in various mutant EGF receptors (Table 17)
pKd: −log10 of the molar value.

| compound | target or test system | pKd |
| --- | --- | --- |
| CCOc1cc2ncc(C#N)c(Nc3ccc(OCc4cccc(F)c4)c(Cl)c3)c2cc1NC(=O)CC1CCSS1 (stereo not shown) | various mutant EGF receptors (Homo sapiens, UniProt P00533, DEL747-752/P753S) | 7.00 to 9.00 |

---

Entries and their measured pIC50 follow.
# target or test system: EGFR WT (Homo sapiens (Human), UniProt P00533)
# Sequence (P00533 25-1210): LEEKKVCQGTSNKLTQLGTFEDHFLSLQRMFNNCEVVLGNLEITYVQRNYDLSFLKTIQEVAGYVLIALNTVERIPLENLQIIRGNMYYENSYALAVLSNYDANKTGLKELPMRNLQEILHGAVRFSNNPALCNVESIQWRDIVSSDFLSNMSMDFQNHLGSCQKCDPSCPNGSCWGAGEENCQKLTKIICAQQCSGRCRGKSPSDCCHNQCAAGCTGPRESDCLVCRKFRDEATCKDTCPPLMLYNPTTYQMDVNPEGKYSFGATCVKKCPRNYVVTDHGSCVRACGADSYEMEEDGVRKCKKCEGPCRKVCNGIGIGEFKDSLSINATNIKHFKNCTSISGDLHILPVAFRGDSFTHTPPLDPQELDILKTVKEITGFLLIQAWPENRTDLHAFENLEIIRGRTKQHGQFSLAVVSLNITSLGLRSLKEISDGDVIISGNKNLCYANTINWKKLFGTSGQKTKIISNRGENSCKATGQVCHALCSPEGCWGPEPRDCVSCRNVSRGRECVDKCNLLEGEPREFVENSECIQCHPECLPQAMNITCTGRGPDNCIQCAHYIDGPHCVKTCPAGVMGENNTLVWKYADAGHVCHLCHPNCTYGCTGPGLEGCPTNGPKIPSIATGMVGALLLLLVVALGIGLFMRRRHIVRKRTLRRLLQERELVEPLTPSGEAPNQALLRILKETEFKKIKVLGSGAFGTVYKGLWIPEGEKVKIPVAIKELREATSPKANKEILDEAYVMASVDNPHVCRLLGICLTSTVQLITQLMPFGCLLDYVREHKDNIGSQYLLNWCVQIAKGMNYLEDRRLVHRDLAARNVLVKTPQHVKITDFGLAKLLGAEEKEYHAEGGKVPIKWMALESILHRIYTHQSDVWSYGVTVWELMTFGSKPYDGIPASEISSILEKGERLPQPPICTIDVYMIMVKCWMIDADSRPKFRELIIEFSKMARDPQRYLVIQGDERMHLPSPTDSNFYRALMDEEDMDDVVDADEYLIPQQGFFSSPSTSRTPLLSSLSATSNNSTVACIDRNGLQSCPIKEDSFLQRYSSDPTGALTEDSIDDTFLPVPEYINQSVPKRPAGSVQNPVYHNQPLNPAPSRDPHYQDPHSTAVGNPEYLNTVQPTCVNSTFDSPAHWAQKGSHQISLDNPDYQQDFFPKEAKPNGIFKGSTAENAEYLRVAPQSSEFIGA
# method: KinaseSeeker rabbit reticulocyte lysate competition binding assay (IC50)
pIC50: −log10 of the molar value.

| molecule | target or test system | pIC50 |
| --- | --- | --- |
| CCOc1cc2ncc(C#N)c(Nc3ccc(F)c(Cl)c3)c2cc1NC(=O)CCCCC1CCSS1 (stereo not drawn) | EGFR WT (Homo sapiens (Human), UniProt P00533) | 6.00 to 7.00 |
| CCOc1cc2ncc(C#N)c(Nc3ccc(OCc4cccc(F)c4)c(Cl)c3)c2cc1NC(=O)C(CSC(C)=O)CSC(C)=O | EGFR WT (Homo sapiens (Human), UniProt P00533) | 6.00 to 7.00 |
| N#Cc1cnc2cc(OC[C@@H](O)CO)c(NC(=O)C[C@@H]3CCSS3)cc2c1Nc1ccc(OCc2cccc(F)c2)c(Cl)c1 | EGFR WT (Homo sapiens (Human), UniProt P00533) | 6.00 to 7.00 |

---

# target or test system: various mutant EGF receptors (Homo sapiens, UniProt P00533, G719S)
# Sequence (P00533 25-1210 G719S limits assumed): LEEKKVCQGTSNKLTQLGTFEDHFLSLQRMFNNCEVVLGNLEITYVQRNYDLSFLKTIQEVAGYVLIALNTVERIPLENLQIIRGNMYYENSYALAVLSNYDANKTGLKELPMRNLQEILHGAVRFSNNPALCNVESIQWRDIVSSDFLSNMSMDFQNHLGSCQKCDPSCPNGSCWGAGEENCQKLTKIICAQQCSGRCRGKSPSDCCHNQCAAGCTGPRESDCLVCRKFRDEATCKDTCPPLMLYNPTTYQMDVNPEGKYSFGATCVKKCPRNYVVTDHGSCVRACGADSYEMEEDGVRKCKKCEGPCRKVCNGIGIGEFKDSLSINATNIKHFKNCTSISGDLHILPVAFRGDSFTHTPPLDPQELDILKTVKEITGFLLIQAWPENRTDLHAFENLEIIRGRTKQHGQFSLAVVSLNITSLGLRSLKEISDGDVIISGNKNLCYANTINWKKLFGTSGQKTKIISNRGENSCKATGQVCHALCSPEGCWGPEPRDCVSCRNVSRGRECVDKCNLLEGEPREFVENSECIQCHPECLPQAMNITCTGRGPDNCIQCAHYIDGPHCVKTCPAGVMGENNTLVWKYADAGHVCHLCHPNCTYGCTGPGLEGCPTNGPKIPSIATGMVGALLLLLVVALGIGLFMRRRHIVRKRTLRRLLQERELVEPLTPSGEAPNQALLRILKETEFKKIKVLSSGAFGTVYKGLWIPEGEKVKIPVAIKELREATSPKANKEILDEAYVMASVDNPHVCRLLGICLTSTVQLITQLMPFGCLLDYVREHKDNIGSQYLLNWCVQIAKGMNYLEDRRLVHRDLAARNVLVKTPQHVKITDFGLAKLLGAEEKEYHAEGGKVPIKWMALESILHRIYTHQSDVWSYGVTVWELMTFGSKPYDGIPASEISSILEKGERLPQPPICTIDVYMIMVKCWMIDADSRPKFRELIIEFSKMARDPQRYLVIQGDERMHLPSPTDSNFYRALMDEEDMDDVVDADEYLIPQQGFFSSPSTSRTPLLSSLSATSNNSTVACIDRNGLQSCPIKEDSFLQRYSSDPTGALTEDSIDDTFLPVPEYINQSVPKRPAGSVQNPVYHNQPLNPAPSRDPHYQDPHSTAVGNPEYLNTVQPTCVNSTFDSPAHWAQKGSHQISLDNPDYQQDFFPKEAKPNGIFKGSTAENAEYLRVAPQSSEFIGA
# method: KINOMEscan competition binding assay (Kd), Example 40 in various mutant EGF receptors (Table 17)

| molecule | Kd |
| --- | --- |
| CCOc1cc2ncc(C#N)c(Nc3ccc(OCc4cccc(F)c4)c(Cl)c3)c2cc1NC(=O)CC1CCSS1 (stereo not shown) | 1 to 99 nM |
